- Tested on: S.aureus 6538
- experiment.notes: Antibacterial spectrum (MIC), agar dilution
- Format: cell-based
- settings: Staphylococcus aureus, read-out: MIC
- Description: In vitro activity was determined by minimum inhibitory concentration in a microorganism spectum by the agar dilution method in Mueller Hinton agar.
quantity.measured: MIC

{"compound": "C=CC1=C(C(=O)O)N2C(=O)[C@@H](NC(=O)/C(=N\\O)c3csc(N)n3)[C@H]2SC1 [Cefdinir, reference compound]", "observed": "0.5 µg/mL"}
{"compound": "Nc1nc(/C(=N/O)C(=O)N[C@@H]2C(=O)N3C(C(=O)O)=C(/C=C4\\CCN(CC(F)(F)F)C4=O)CS[C@H]23)cs1", "observed": "0.5 µg/mL"}
{"compound": "Nc1nc(/C(=N/O)C(=O)N[C@@H]2C(=O)N3C(C(=O)O)=C(/C=C4\\CCN(c5ccccc5)C4=O)CS[C@H]23)cs1", "observed": "0.5 µg/mL"}
{"compound": "CON1CC/C(=C\\C2=C(C(=O)O)N3C(=O)[C@@H](NC(=O)/C(=N\\O)c4csc(N)n4)[C@H]3SC2)C1=O", "observed": "0.5 µg/mL"}
{"compound": "CO/N=C(\\C(=O)N[C@@H]1C(=O)N2C(C(=O)O)=C(CSc3nc(=O)c(=O)[nH]n3C)CS[C@H]12)c1csc(N)n1 [Ceftriaxone, reference compound]", "observed": "4 µg/mL"}
{"compound": "C#CCN1CC/C(=C\\C2=C(C(=O)O)N3C(=O)[C@@H](NC(=O)/C(=N\\O)c4csc(N)n4)[C@H]3SC2)C1=O", "observed": "1 µg/mL"}
{"compound": "Nc1nc(/C(=N/O)C(=O)N[C@@H]2C(=O)N3C(C(=O)O)=C(/C=C4\\CCN(CCF)C4=O)CS[C@H]23)cs1", "observed": "0.5 µg/mL"}
{"compound": "Nc1nc(/C(=N/O)C(=O)N[C@@H]2C(=O)N3C(C(=O)O)=C(/C=C4\\CCN(c5cnccn5)C4=O)CS[C@H]23)cs1", "observed": "0.5 µg/mL"}
{"compound": "Nc1nc(/C(=N/O)C(=O)N[C@@H]2C(=O)N3C(C(=O)O)=C(/C=C4\\CCN(C5CC5)C4=O)CS[C@H]23)cs1", "observed": "0.5 µg/mL"}
{"compound": "N#CCN1CC/C(=C\\C2=C(C(=O)O)N3C(=O)[C@@H](NC(=O)/C(=N\\O)c4csc(N)n4)[C@H]3SC2)C1=O", "observed": "1 µg/mL"}
{"compound": "Nc1nc(/C(=N/O)C(=O)N[C@@H]2C(=O)N3C(C(=O)O)=C(/C=C4\\CCN(CC5CC5)C4=O)CS[C@H]23)cs1", "observed": "0.5 µg/mL"}
{"compound": "C=CCN1CC/C(=C\\C2=C(C(=O)O)N3C(=O)[C@@H](NC(=O)/C(=N\\O)c4csc(N)n4)[C@H]3SC2)C1=O", "observed": "1 µg/mL"}
{"compound": "CC(C)(C)N1CC/C(=C\\C2=C(C(=O)O)N3C(=O)[C@@H](NC(=O)/C(=N\\O)c4csc(N)n4)[C@H]3SC2)C1=O", "observed": "1 µg/mL"}
{"compound": "COc1ccc(N2CC/C(=C\\C3=C(C(=O)O)N4C(=O)[C@@H](NC(=O)/C(=N\\O)c5csc(N)n5)[C@H]4SC3)C2=O)cc1", "observed": "0.5 µg/mL"}
